# Measurement Protocol: Concentration in blood upon subcutaneous injection in mice (HPLC, serum)
# Format: in vivo, mice of ICR strain
# Run Conditions: sc, male ICR mice, 0.5 mg per mouse, Gauss-Newton method, read-out: AUC (Area under the plasma concentration-time curve)
Below is a list of entries, each paired with its recorded AUC value.

# Molecule, Endpoint Unit, AUC
data = [
    ("Nc1nc(/C(=N/OCC(=O)O)C(=O)NC2C(=O)N3C(C(=O)O)=C(Sc4nc5ccccc5s4)CSC23)cs1 (centres unmarked)", "ng·h/mL", 131000),
    ("CO/N=C(\\C(=O)NC1C(=O)N2C(C(=O)O)=C(Sc3nc4ccccc4s3)CS[C@H]12)c1csc(N)n1 (some centres unmarked)", "ng·h/mL", 62500),
]

###

# Measurement Protocol: Concentration in blood upon subcutaneous injection in mice (HPLC, serum)
# Format: in vivo, mice of ICR strain
# Run Conditions: sc, male ICR mice, 0.5 mg per mouse, HPLC, read-out: Maximum concentration in blood

# Compound, Endpoint Unit, Cmax
rows = [
    ("Nc1nc(/C(=N/OCC(=O)O)C(=O)NC2C(=O)N3C(C(=O)O)=C(Sc4nc5ccccc5s4)CSC23)cs1 (centres unmarked)", "µg/mL", 80.8),
    ("CO/N=C(\\C(=O)NC1C(=O)N2C(C(=O)O)=C(Sc3nc4ccccc4s3)CS[C@H]12)c1csc(N)n1 (some centres unmarked)", "µg/mL", 51.6),
]
